Entry source: ChEMBL document CHEMBL1201862

test system: HOP-92; experiment: NCI tumour cell line growth inhibition, 48 h
Activity calls are given as the source filed them. Rule as the data show it: active = GI50 up to about 1.1 µM and inactive = higher.
Pick one and only one: 1.0 = active, 0.0 = inactive

Some entries whose results are on file:
Call for entry COC(=O)C(=O)C(C(=O)C(=O)Nc1ccc(OC)cc1[N+](=O)[O-])c1nc2ccc([N+](=O)[O-])cc2nc1O (stereo not given) : 0.0

Hi, sorry to bother you, what did the test record for CC(C)CC1C(=O)NCCC(NC(=O)C(N)Cc2ccc(O)cc2)C(=O)NC(Cc2ccccc2)C(=O)NC(Cc2ccccc2)NC1=O (stereo not given) ? 0.0

Hey, what did the test say about CC(C)(CN1CCCCC1)C(=O)CC(SCCS(=O)(=O)O)c1ccc(Cl)c(Cl)c1 (stereo not given) ? 0.0

So what was the verdict on "COc1ccc2nc3c4c(nccc4c2c1)-c1ncccc1C3=O" in this test? 1.0

Status in this test for "COc1ccc(/N=C\c2ccc(N(CCC#N)S(=O)(=O)c3ccccc3)cc2C)cc1" ? 0.0

Others:
Could you please tell me the result logged for "Cc1cccc(Nc2cnc(N)nc2N)c1" in this assay? 0.0

Per the assay record, what outcome was assigned to "COc1ccc2c(O)c3[n+](cc2c1OC)CCc1cc2c(cc1-3)OCO2" ? 0.0

I'd appreciate the recorded outcome for CSCCC(NCc1c(O)ccc2ccc(=O)oc12)C(=O)O (stereo not given) from this test. 0.0

Recorded call for "C/C(=N\NC(=S)NCCCCNC(=S)N/N=C(\C)c1ccccn1)c1ccccc1" ? 0.0

# lookup: test call for "C[Si](C)(C)/C(Br)=C\CCN1C(=O)CCC1=O" 0.0

---

# key: entry, value: GI50
test system: KM12; experiment: NCI tumour cell line growth inhibition, 48 h
Calls of active or inactive are those of the source. Cut-off read from the data, not from the text of the source: active = GI50 up to about 1.1 µM and inactive = higher.

Solved entries:
Look up GI50 with KM12 for this molecule: COC(=O)CCC(NC(=S)N/N=C(\C)c1ccco1)C(=O)OC (stereo not given) > 100 µM (inactive)

For KM12, provide GI50 of CCCCCC(C(O)C#N)C(O)(C(F)(F)F)C(F)(F)F (stereo not given) please. > 10 µM (inactive)

Write down the reported GI50 of "O=CNNC(=O)Nc1cccc2ccccc12" , test system: KM12. > 100 µM (inactive)

Value wanted: GI50 (KM12) of entry "Cc1c(C(=O)c2ccc(N)c3ccccc23)c2ccccc2n1CCN1CCOCC1" 3.38 µM (inactive)

More entries:
Write down the reported GI50 of COC(=O)C(=O)C(C(=O)C(=O)Nc1ccc(OC)cc1[N+](=O)[O-])c1nc2ccc([N+](=O)[O-])cc2nc1O (stereo not given) , test system: KM12. > 100 µM (inactive)

---

test system: HOP-18; assay: NCI tumour cell line growth inhibition, 48 h
Activity calls are given as the source filed them. Rule as the data show it: active = GI50 up to about 1.1 µM and inactive = higher.
As shown below, each of these molecules has a reported GI50 value.

Which GI50 reading was recorded for the molecule CCCN1CN(C(C(=O)N[C@@H]2C(=O)N3C2SC(C)(C)C3C(=O)O)c2ccc(O)cc2)CSC1=S (stereo not given in full) ? > 100 µM (inactive)

Data request, read-out GI50, for "O=C1C(Nc2ccc(S(=O)(=O)Nc3cnc4ccccc4n3)cc2)=C/C(=N\c2ccc(S(=O)(=O)Nc3cnc4ccccc4n3)cc2)c2ccccc21" 13.7 µM (inactive)

Others:
Endpoint output: GI50 of "O=C(CC(=O)c1cccc([N+](=O)[O-])c1)C(=O)Nc1ccccc1" . Value? > 100 µM (inactive)

Returns the measured GI50 for the input molecule. Input: "O[C@H]1[C@H]2[C@H](O)CCCN2C[C@H]1O" > 100 µM (inactive)

Request the reported GI50 associated with "CN(C)CC/[N+]([O-])=C(/c1ccccc1)C12CC3CC(CC(C3)C1)C2" 20.9 µM (inactive)

Which GI50 value belongs to "O=C(O)/C=C/c1ccc(O)c(O)c1" ? > 100 µM (inactive)

Param item = "CC(=O)NS(=O)(=O)c1ccc(NC(=O)COC(=O)c2cccc3c(=O)c4ccccc4[nH]c23)cc1" ; retrieve measured GI50. > 100 µM (inactive)

Find the recorded GI50 belonging to Fc1ccc2c(c1)SC1Oc3ccccc3-c3c1c-2nn3-c1ccccc1 (stereo not given) and report it. 27 µM (inactive)

Given the molecule "CC1=C(C(=O)Nc2ccccc2C)C(c2ccccc2O)C(C(=O)Nc2ccccc2C)=C(C)N1" , what is its reported GI50? 17.9 µM (inactive)

Sample NC1C[C@H](n2cc(/C=C/Br)c(=O)[nH]c2=O)C[C@@H]1CO (stereo not given in full) — what was its GI50? > 100 µM (inactive)

Give its GI50 value. Item: NC(=O)C12C3C4C1C1C2C3C41C(N)=O (stereo not given) > 100 µM (inactive)

What value of GI50 has been reported for the following molecule? "C/C(=N\NS(=O)(=O)c1ccccc1)c1ccc(Cl)c(Cl)c1" 49.8 µM (inactive)

---

The following compounds are shown together with reported GI50 values.
tested on: HT-29; experiment: NCI tumour cell line growth inhibition, 48 h
The source made the active and inactive calls. Rule as the data show it: active = GI50 up to about 1.1 µM and inactive = higher.

Some compounds with recorded GI50:
Please give the measured GI50 for this compound: "COC(=O)c1cccc(COc2ccc([N+](=O)[O-])cc2Cl)c1" > 100 µM (inactive)

Could you tell me which GI50 is on file for "COc1ccc2c(O)c3[n+](cc2c1OC)CCc1cc2c(cc1-3)OCO2" ? 63.2 µM (inactive)

# query: GI50 of entry N#CC(Sc1ccccc1)C(N)=O (stereo not given) > 100 µM (inactive)

Quick check: GI50 of "COc1ccccc1C(=O)N(Cc1ccccc1)c1ccc(Cl)c(C(=O)OC(C)C)c1" ? 16.6 µM (inactive)

GI50 lookup needed for "C/C(CC(=O)Nc1ccc(C)c(C)c1)=N\NC(N)=S" , thanks. > 100 µM (inactive)

Further cases:
Which GI50 is reported for this compound? "Cc1c(N2C(=O)/C(=C/c3ccc(N(CCC#N)CCC#N)cc3)N=C2c2ccccc2)c(=O)n(-c2ccccc2)n1C" > 100 µM (inactive)

I have this compound here, "Cc1c(C(=O)c2ccc(N)c3ccccc23)c2ccccc2n1CCN1CCOCC1" , and I need its recorded GI50. 22.4 µM (inactive)

---

test system: U-251; experiment: NCI tumour cell line growth inhibition, 48 h
Calls of active or inactive are those of the source. Cut-off read from the data, not from the text of the source: active = GI50 up to about 1.1 µM and inactive = higher.
reported property: GI50

Recorded GI50 of C[C@@H](NC1CCCC[C@H]1O)c1ccccc1 (stereo partly specified) , please. > 100 µM (inactive)

# query: GI50 of entry CC(C)(CN1CCCCC1)C(=O)CC(SCCS(=O)(=O)O)c1ccc(Cl)c(Cl)c1 (stereo unspecified) 7.13 µM (inactive)

What value of measured GI50 is listed for Nc1ncnc2c1ncn2C1OC(CSC(F)(F)F)C(O)C1O (stereo unspecified) ? > 100 µM (inactive)

Quick one: GI50 for COC(=O)C(CC(=O)Nc1ccc(Cl)c(Cl)c1)C(=O)C(=O)Nc1ccc(Cl)c(Cl)c1 (stereo unspecified) ? > 100 µM (inactive)

Field request: GI50 | item: COC(=O)c1ccccc1CC(Cc1ccccc1)C(=O)OC (stereo unspecified) 30.8 µM (inactive)

Turning now to a further record.
Would you kindly share the measured GI50 for NC(=O)C(NC=O)c1ccccc1 (stereo unspecified) ? > 100 µM (inactive)

---

Listing: GI50 of selected compounds
system: UACC-62; experiment: NCI tumour cell line growth inhibition, 48 h
Activity calls are given as the source filed them. Cut-off read from the data, not from the text of the source: active = GI50 up to about 1.1 µM and inactive = higher.

// solved cases for GI50 follow
Requested field: GI50. Item: "COc1cccc(-c2cc(O)c3cc(N4CCN(C)CC4)ccc3n2)c1" 1.28 µM (inactive)

Name the reported GI50 value associated with the compound CCCC1C2=C(C(=O)OC2=O)C2C(CC)CC3=C(C(=O)OC3=O)C12 (stereo not given) > 100 µM (inactive)

Field request: GI50 | item: CC1CC(=O)C(CC(=O)O)C1C(C(=O)C(=O)Nc1c(C#N)cccc1[N+](=O)[O-])[N+](=O)[O-] (stereo not given) > 100 µM (inactive)

Suppose we examine the compound CC1(C)CCCC2(C)C3=C(CCC12)C(=O)OC3 (stereo not given) ; what GI50 value has been reported? 93.5 µM (inactive)

Recorded GI50 for "COc1cc(/C=N/N=C(\N)NO)cc(Cl)c1O" , please? 42.4 µM (inactive)

Look at this compound and give its reported GI50. COc1cc(/C=C2\CN(C)CC3=C2N=C(S)NC3c2cc(OC)c(OC)c(OC)c2)cc(OC)c1OC (stereo not given) 20.9 µM (inactive)

What value of GI50 has been reported for the following compound? "CCCSS[C@H]1NC(=O)[C@H]1NC(=O)COc1ccccc1" 17.9 µM (inactive)

Suppose we examine the compound "c1ccc(Cc2cccc3cc(-c4ccc(-c5ccccc5)cc4)[nH]c23)cc1" ; what GI50 value has been reported? > 100 µM (inactive)

Further cases:
Requested field: GI50. Item: "O=c1c(-c2ccccc2)c(SCCN2CCOCC2)n(-c2ccccc2)c(=S)n1-c1ccccc1" 89.1 µM (inactive)

Please report the recorded GI50 for "CS(=O)(=O)NNS(=O)(=O)c1ccccc1" . > 100 µM (inactive)
